Molecular target: hERG (Homo sapiens, UniProt Q12809)
Construct: host or cells: CHO (hERG-CHO)
Sequence (Q12809 whole entry): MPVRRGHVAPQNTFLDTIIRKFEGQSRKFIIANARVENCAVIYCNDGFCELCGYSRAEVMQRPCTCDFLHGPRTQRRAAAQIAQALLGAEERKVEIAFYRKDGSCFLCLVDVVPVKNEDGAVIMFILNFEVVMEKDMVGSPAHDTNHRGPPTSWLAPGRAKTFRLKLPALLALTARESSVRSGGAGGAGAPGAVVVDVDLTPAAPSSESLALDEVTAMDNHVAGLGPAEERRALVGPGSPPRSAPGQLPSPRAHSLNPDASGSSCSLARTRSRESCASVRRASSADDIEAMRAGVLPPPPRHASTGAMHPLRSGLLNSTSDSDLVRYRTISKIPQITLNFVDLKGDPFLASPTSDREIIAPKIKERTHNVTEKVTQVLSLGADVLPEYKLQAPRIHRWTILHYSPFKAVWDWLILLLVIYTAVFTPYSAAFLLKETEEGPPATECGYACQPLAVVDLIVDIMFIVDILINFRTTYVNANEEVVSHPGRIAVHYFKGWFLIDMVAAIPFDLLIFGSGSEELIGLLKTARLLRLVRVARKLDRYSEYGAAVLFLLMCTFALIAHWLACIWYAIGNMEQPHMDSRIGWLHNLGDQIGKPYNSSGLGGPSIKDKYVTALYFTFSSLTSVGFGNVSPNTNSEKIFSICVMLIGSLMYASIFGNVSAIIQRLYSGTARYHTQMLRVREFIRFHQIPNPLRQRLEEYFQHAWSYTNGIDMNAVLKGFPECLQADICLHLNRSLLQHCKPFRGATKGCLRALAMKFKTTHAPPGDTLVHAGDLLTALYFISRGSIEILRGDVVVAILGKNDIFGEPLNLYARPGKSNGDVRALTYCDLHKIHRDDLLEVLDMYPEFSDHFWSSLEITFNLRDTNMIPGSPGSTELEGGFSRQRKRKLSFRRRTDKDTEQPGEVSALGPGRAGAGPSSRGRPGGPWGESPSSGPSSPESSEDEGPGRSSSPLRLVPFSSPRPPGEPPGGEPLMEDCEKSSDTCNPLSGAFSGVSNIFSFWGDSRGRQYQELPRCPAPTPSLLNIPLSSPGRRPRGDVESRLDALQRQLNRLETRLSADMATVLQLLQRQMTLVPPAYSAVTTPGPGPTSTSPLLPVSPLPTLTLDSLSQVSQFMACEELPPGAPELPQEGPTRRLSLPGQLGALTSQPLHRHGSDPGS
Assay: hERG patch-clamp assay (hERG-CHO, automated patch-clamp)
Assay type: cell-based
Settings: human, CHO cells that express hERG; 100 µM
measurement kind: inhibition at 100 µM (%)
// return numeric value only (unit: %, not printed)

Q: Read off the recorded inhibition at 100 µM for Cc1cc(NC2CCN(C(=O)CCNCC(=O)O)CC2)nc(NCc2nc(CCCNCCCNC3CCCCC3)co2)n1 [BPRCX807]
Result: 17.4

----------
Catalogue of half-life values
Assay: in vivo
Details: male, C57BL/6, mouse, in vivo, sc, 6 mg/kg
Report the figure in h without appending any unit label.

> print(dat)
                                   compound  measurement
1  c1cc(CN2CCCNCCNCCCNCC2)ccc1CN1CCCNCCNCCCNCC1 [AMD3100, reference compound]            1

Pending compound:
Q: Input Cc1cc(NC2CCN(C(=O)CCNCC(=O)O)CC2)nc(NCc2nc(CCCNCCCNC3CCCCC3)co2)n1 [BPRCX807] , output reported half-life.
Result: 1
